These data points were gathered from paper PMC10178506.

- TESTED ON: human recombinant MAO A (Homo sapiens)
- Construct: purchased Sigma Aldrich (Milan, Italy); host or cells: baculovirus-infected insect cells
- METHOD SUMMARY: biochemical
- Type: biochemical
- MEASUREMENT CONTEXT: read-out: hMAO-A % inhibition at 10 μM
QUANTITY NAME: inhibition at 10 µM
In your response, the unit should come after the numeric value.

COMPOUND	TESTED ON	inhibition at 10 µM
CN1C=Cc2oc3ccccc3c(=O)c2C1C#Cc1ccccc1 (centres unmarked)	human recombinant MAO A (Homo sapiens)	35%
CN1CC[C@@]2(O)Oc3ccccc3[C@@H](O)[C@@H]2C1 (relative stereo)	human recombinant MAO A (Homo sapiens)	8%
COc1cccc2c(=O)c3c(oc12)C=CN(C)C3C#Cc1ccccc1 (centres unmarked)	human recombinant MAO A (Homo sapiens)	32%
CN1CCC2=C(C1)C(c1c[nH]c3ccc(Br)cc13)c1cc(Cl)ccc1O2 (centres unmarked)	human recombinant MAO A (Homo sapiens)	29%

Entry CN1CC[C@@]2(O)Oc3ccc(Br)cc3[C@@H](O)[C@@H]2C1 (relative stereo) , tested on human recombinant MAO A (Homo sapiens), has a reported inhibition at 10 µM of 14%

* * *

- Tested on: SK-OV-3, human ovarian carcinoma with intrinsic resistance to cisplatin
- METHOD SUMMARY: Antiproliferative activity, sulforhodamine-B (SRB) assay, SK-OV-3
- Type: cell-based
- MEASUREMENT CONTEXT: 72 h exposure; SRB assay; mean ± S.D.; >50 = less than 50% growth inhibition at 50 μM; read-out: Antiproliferative activity IC50, SK-OV-3
QUANTITY NAME: pIC50
Worth noting: pIC50 values are minus log10 of concentrations stated in mol/L.

COMPOUND	READOUT VALUE
CN1CCC2=C(C1)C(c1c[nH]c3ccc(Br)cc13)c1cc(Cl)ccc1O2 (centres unmarked)	4.95

From here, focus on the item given below.
The measured pIC50 associated with N.N.[Cl][Pt][Cl] [Cisplatin, reference compound] reads 5.35

* * *

Form field: IC50 (one value per entry).
- Tested on: SK-OV-3, human ovarian carcinoma with intrinsic resistance to cisplatin
- METHOD SUMMARY: Antiproliferative activity, sulforhodamine-B (SRB) assay, SK-OV-3
- Format: cell-based
- MEASUREMENT CONTEXT: Homo sapiens, SK-OV-3, 72 h, 72 h exposure; SRB assay; mean ± S.D.; >50 = less than 50% growth inhibition at 50 μM; read-out: Antiproliferative activity IC50, SK-OV-3
Report only the number, with the unit µM understood.

The following compounds have reported results that may help.
COMPOUND	QUANTITY NAME	READOUT VALUE
COc1cccc2c1C(=O)c1c(O)c3c(c(O)c1C2=O)C[C@@](O)(C(=O)CO)C[C@@H]3O[C@H]1C[C@H](N)[C@H](O)[C@H](C)O1 [Doxorubicin, doxorubicin, reference compound]	IC50	2.2
CN1CCC2=C(C1)C(c1c[nH]c3ccccc13)c1cc(Cl)ccc1O2 (stereo not drawn) [6a]	IC50	14.7
COc1ccc2[nH]cc(C3C4=C(CCN(C)C4)Oc4ccc(Cl)cc43)c2c1 (stereo not drawn) [6b]	IC50	22.3

From here, focus on the item given below.
The measured IC50 associated with CN1CCC2=C(C1)C(c1c[nH]c3ccc(Br)cc13)c1cc(Cl)ccc1O2 (stereo not drawn) [6c] reads 11

* * *

- TESTED ON: human recombinant MAO A (Homo sapiens, UniProt P21397)
- Construct: purchased Sigma Aldrich (Milan, Italy); host or cells: baculovirus-infected insect cells
- Sequence (P21397 whole entry): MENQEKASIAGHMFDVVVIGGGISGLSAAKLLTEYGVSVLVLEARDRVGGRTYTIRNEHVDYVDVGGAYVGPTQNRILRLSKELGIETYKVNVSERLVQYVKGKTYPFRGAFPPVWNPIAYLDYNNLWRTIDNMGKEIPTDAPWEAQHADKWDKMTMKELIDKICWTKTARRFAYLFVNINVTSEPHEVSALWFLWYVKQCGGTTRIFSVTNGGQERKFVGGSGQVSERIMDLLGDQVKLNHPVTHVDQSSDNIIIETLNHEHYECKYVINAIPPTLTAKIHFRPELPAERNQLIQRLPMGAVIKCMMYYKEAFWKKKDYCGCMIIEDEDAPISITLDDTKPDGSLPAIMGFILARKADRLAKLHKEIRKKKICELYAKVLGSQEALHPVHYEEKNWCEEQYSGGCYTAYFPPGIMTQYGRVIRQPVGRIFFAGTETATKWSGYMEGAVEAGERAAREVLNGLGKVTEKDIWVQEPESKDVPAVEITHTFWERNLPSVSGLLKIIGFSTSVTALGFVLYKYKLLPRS
- METHOD SUMMARY: biochemical
- Assay type: biochemical
- MEASUREMENT CONTEXT: read-out: hMAO-A % inhibition at 10 μM
- Procedure: Human isoforms of MAOs (from baculovirus-infected insect cells) and ChEs (human recombinant AChE and BChE from human serum), purchased from Sigma Aldrich (Milan, Italy), were used for inhibition assays. Experiments were performed in 96-well plates (Greiner Bio-One, Kremsmünster, Austria) on the Infinite M1000 Pro plate reader (Tecan, Cernusco s.N., Italy), using already published protocols. […]
Entry flag: T if inhibition at 10 µM reaches 20%; F if it does not.

Worked set:
COMPOUND	TESTED ON	CLASS LABEL
CN1CC[C@@]2(O)Oc3ccccc3[C@@H](O)[C@H]2C1 (relative stereo) [7a]	human recombinant MAO A (Homo sapiens, UniProt P21397)	F
O[C@@H]1c2ccccc2O[C@]2(O)CCN(Cc3ccccc3)C[C@@H]12 (relative stereo) [8e]	human recombinant MAO A (Homo sapiens, UniProt P21397)	F
CN1CCc2oc3ccccc3c(=O)c2C1 [1a]	human recombinant MAO A (Homo sapiens, UniProt P21397)	F

Could you please find out whether CN1CC[C@@]2(O)Oc3ccc(Br)cc3[C@@H](O)[C@H]2C1 (relative stereo) [7c] has inhibition at 10 µM that meets 20% or exceeds it?
T

Could you please find out whether CCOc1cccc2c(=O)c3c(oc12)C=CN(C(C)C)C3C#Cc1ccccc1 (stereo not drawn) [3d] has inhibition at 10 µM that meets 20% or exceeds it?
T

Could you please find out whether COc1ccc2[nH]cc(C3C4=C(CCN(C)C4)Oc4ccc(Cl)cc43)c2c1 (stereo not drawn) [6b] has inhibition at 10 µM that meets 20% or exceeds it?
T

Could you please find out whether CCOc1cccc2c1O[C@]1(O)CCN(C)C[C@@H]1[C@@H]2O (relative stereo) [7e] has inhibition at 10 µM that meets 20% or exceeds it?
F

Could you please find out whether CN1CCC2=C(C1)C(c1c[nH]c3ccccc13)c1cc(Cl)ccc1O2 (stereo not drawn) [6a] has inhibition at 10 µM that meets 20% or exceeds it?
T

* * *

- TESTED ON: human recombinant MAO A (Homo sapiens, UniProt P21397)
- METHOD SUMMARY: biochemical
QUANTITY NAME: pIC50
Worth noting: pIC50 values are minus log10 of concentrations stated in mol/L.

The measured pIC50 associated with CN1CC=C2Oc3ccc(Br)cc3C=C2C1 reads 6.15

The measured pIC50 associated with CN1CC=C2Oc3ccc(Cl)cc3C=C2C1 reads 5.93

* * *

- Test system: SK-OV-3, human ovarian carcinoma with intrinsic resistance to cisplatin
- METHOD SUMMARY: Antiproliferative activity, sulforhodamine-B (SRB) assay, SK-OV-3
- Type: cell-based
- MEASUREMENT CONTEXT: Homo sapiens, SK-OV-3, 72 h, read-out: Antiproliferative activity IC50, SK-OV-3
Form field: IC50 (one value per entry).

CN1CC=C2Oc3ccc(Cl)cc3C=C2C1 > 50 µM

Entry CN1CC=C2Oc3ccc(Br)cc3C=C2C1 , tested on SK-OV-3, human ovarian carcinoma with intrinsic resistance to cisplatin, has a reported IC50 of > 50 µM

* * *

- TESTED ON: BChE from human serum (Homo sapiens)
- Construct: ChEs (human recombinant AChE and BChE from human serum), purchased from Sigma Aldrich (Milan, Italy); purchased Sigma Aldrich (Milan, Italy); host or cells: human serum (natural source)
- Sequence (P06276 29-602): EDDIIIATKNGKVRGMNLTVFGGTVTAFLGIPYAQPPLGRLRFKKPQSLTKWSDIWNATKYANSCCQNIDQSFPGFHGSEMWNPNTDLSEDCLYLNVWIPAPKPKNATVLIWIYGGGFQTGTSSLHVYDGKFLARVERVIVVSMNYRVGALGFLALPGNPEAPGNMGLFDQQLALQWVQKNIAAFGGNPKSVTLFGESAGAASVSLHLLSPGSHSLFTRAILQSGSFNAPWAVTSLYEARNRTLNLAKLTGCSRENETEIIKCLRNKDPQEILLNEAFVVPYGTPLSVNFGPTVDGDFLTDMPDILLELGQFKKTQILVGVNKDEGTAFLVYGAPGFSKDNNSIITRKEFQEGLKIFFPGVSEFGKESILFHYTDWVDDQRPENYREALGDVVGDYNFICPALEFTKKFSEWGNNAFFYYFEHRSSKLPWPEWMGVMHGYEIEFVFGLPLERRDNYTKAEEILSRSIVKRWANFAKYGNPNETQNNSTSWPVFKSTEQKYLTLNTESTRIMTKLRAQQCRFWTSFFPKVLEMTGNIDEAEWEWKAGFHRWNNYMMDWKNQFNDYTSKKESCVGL
- METHOD SUMMARY: biochemical
- MEASUREMENT CONTEXT: read-out: hBChE % inhibition at 10 μM; 10 μM concentration; mean ± S.D. (n = 3); n.i. = no inhibition at 10 μM
QUANTITY NAME: inhibition at 10 µM

The following compounds have reported results that may help.
COMPOUND	TESTED ON	inhibition at 10 µM
CN1CC[C@@]2(O)Oc3ccc(Br)cc3[C@@H](O)[C@H]2C1 (relative stereo)	BChE from human serum (Homo sapiens)	12%
CN1CCC2=C(C1)C(c1c[nH]c3ccc(Br)cc13)c1cc(Cl)ccc1O2 (stereo not drawn)	BChE from human serum (Homo sapiens)	23%

From here, focus on the item given below.
The measured inhibition at 10 µM associated with O[C@@H]1c2ccccc2O[C@]2(O)CCN(Cc3ccccc3)C[C@@H]12 (relative stereo) reads 19%

* * *

- System: HCT116, colon cancer cell line
- METHOD SUMMARY: Antiproliferative activity, sulforhodamine-B (SRB) assay, HCT116
- Type: cell-based, human
- MEASUREMENT CONTEXT: 72 h exposure; SRB assay; mean ± S.D.; >50 = less than 50% growth inhibition at 50 μM; read-out: Antiproliferative activity IC50, HCT116
- Procedure: The SK-OV-3 ovarian cancer cell line, MCF-7 breast cancer line and HCT-116 colon cancer cell line were obtained from the National Cancer Institute, Biological Testing Branch (Frederick, MD, USA), and maintained in the logarithmic phase at 37 °C in a 5% CO2 humidified air in RPMI 1640 medium supplemented with 10% fetal calf serum, 2 mM glutamine, penicillin (100 U/mL) and streptomycin (0.1 mg/mL). […]
QUANTITY NAME: IC50 (µM)
Report only the number, with the unit µM understood.

The measured IC50 associated with N.N.[Cl][Pt][Cl] [Cisplatin, reference compound] reads 5.02
